molecular target: D(1A) dopamine receptor (Homo sapiens); assay: Antagonist of Human D 1 Dopamine Receptor: qHTS; conditions: HEK293 TREx D1 cells, calcium flux, dopamine EC80; at 10 µM
Screen size: about 360,000 compounds; about 11,000 (3.1%) were called active. Rule as the data show it: active = activity change below about -30%; inactive = the rest. The sample as a whole holds a higher share of actives than the screen did.
Outcome codes: y (active), n (inactive)

COMPOUND	SUBJECT_OF_TEST	GROUP
O=C(NCc1ccc2c(c1)CCN2C(=O)c1ccccc1)Nc1cc(F)ccc1F	D(1A) dopamine receptor (Homo sapiens)	n
O=C(Cc1ccc(Cl)cc1)Nc1ccc2nn(-c3ccc(Cl)cc3)nc2c1	D(1A) dopamine receptor (Homo sapiens)	n
COc1ccc2[nH]c3c(c2c1)CCN(C(=O)CCC1CCCC1)C3c1ccc(F)cc1 (configuration not stated)	D(1A) dopamine receptor (Homo sapiens)	n
Cn1c(Nc2ccccc2)cc(=O)n(C)c1=O	D(1A) dopamine receptor (Homo sapiens)	n
CCOCC(=O)NCc1ccc2c(c1)cc(C)n2C	D(1A) dopamine receptor (Homo sapiens)	y
O=C(Cn1[nH]c(=O)c2ccccc2c1=O)Nc1cccc(-c2nnc3n2CCCCC3)c1	D(1A) dopamine receptor (Homo sapiens)	y
Cc1ccccc1-c1nc(SCC(=O)N(C)c2ccccc2)c2c(=O)n(C)c(=O)n(C)c2n1	D(1A) dopamine receptor (Homo sapiens)	n
CCOC(=O)c1c(N)n(-c2cccc(C)c2C)c2nc3ccccc3nc12	D(1A) dopamine receptor (Homo sapiens)	n
Cc1ccccc1-n1c(=O)c2ccccc2n(Cc2ccc(F)cc2)c1=O	D(1A) dopamine receptor (Homo sapiens)	n
COc1ccc(-c2nc(SCC(=O)N3CCCCC3C)n[nH]2)cc1 (configuration not stated)	D(1A) dopamine receptor (Homo sapiens)	n
CC1CCCCN1Cc1c(O)ccc2c(=O)c(-c3cccc(Cl)c3)c(C(F)(F)F)oc12 (configuration not stated)	D(1A) dopamine receptor (Homo sapiens)	n
NS(=O)(=O)c1ccc2nc(NC(=O)CS(=O)(=O)c3ccc(F)cc3)sc2c1	D(1A) dopamine receptor (Homo sapiens)	n
CCCCC(=O)NNC(=S)NC(=O)C(c1ccccc1)c1ccccc1	D(1A) dopamine receptor (Homo sapiens)	y
COc1ccc(-n2nc3c(c2NC(=O)Cc2cccc(C)c2)CS(=O)C3)cc1 (configuration not stated)	D(1A) dopamine receptor (Homo sapiens)	n
CCCNC(=O)C(CC)n1nc(CC)n2c(cc3oc(C)cc32)c1=O (configuration not stated)	D(1A) dopamine receptor (Homo sapiens)	n
Cc1cccc(C(=O)N2c3nc(-c4ccco4)nn3C3(CCCCC3)[C@@H]3CCCC[C@@H]32)c1	D(1A) dopamine receptor (Homo sapiens)	n
Cc1c(C(=O)Nc2cccc(-c3nnc4n3CCCCC4)c2)oc2ccccc12	D(1A) dopamine receptor (Homo sapiens)	n
Cc1cc(NC(=O)Nc2ccc(Cl)cc2)n(-c2ccccc2)n1	D(1A) dopamine receptor (Homo sapiens)	n
COc1cc(C(=O)NCc2ccc3c(c2)cc(C)n3C)cc(OC)c1OC	D(1A) dopamine receptor (Homo sapiens)	n
Cc1cccc(CC(=O)Nc2c3c(nn2-c2cccc(Cl)c2)CS(=O)C3)c1 (configuration not stated)	D(1A) dopamine receptor (Homo sapiens)	n
CCOc1ccccc1NC(=O)CN1CCN(S(=O)(=O)c2ccc(Br)cc2)CC1	D(1A) dopamine receptor (Homo sapiens)	n
Cc1ccc(CNC(=O)COc2ccc3c(c2)CCC3)cc1	D(1A) dopamine receptor (Homo sapiens)	n
